Please go through the items and note down their GI50.
System: HT-29 cells (colorectal adenocarcinoma)
Assay: Inhibition of cancer cell proliferation, HT-29 (CellTiterGlo, 72 hours)
Assay type: cell-based
Conditions: Homo sapiens

For orientation, consider the following solved cases.
Line Notation	GI50
C=CC(=O)Nc1ccccc1Nc1nc(Nc2cc(C(N)=O)ccc2CC)ncc1Cl	101 to 500 nM
C=CC(=O)Nc1cc(C)ccc1Nc1nc(Nc2cc(NC3CC3)nc(OC)c2)ncc1C(F)(F)F	< 100 nM
C=CC(=O)Nc1ccccc1Nc1nc(Nc2cc(S(N)(=O)=O)ccc2C)ncc1Cl	< 100 nM

Please state GI50 for every compound in the list that follows.
1. C=CC(=O)Nc1cc(C)ccc1Nc1nc(N[C@H]2CCCN(C(=O)CO)C2)ncc1C(F)(F)F
2. C=CC(=O)Nc1cc(C)c(F)cc1Nc1nc(Nc2nc(OC)ncc2C)ncc1C(F)(F)F
3. C=CC(=O)Nc1ccccc1Nc1nc(Nc2cncc(OC)c2)ncc1C(F)(F)F
4. C=CC(=O)Nc1cc(F)ccc1Nc1nc(Nc2cc(C(N)=O)ccc2OC)ncc1Cl
5. C=CC(=O)Nc1cc(C)c(F)cc1Nc1nc(Nc2nc(OC)ncc2Cl)ncc1C(F)(F)F
6. C=CC(=O)Nc1ccccc1Nc1nc(Nc2cc(OC)ncc2C)ncc1C(F)(F)F
7. C=CC(=O)Nc1cc(C)ccc1Nc1nc(Nc2cc(NCCOC)nc(OC)c2)ncc1C(F)(F)F

1: < 100 nM; 2: < 100 nM; 3: < 100 nM; 4: 101 to 500 nM; 5: 101 to 500 nM; 6: < 100 nM; 7: < 100 nM

Please state GI50 for every compound in the list that follows.
1. C=CC(=O)Nc1cc(OC)ccc1Nc1nc(Nc2cc(OC)nc(N3CCN(C(C)=O)CC3)c2)ncc1C(F)(F)F
2. C=CC(=O)Nc1ccccc1Nc1nc(N[C@H]2CCN(C(=O)OC)C2)ncc1C(F)(F)F

1. < 100 nM
2. 101 to 500 nM

Please state GI50 for every compound in the list that follows.
1. C=CC(=O)Nc1cc(OC)ccc1Nc1nc(Nc2cc(OC)ncc2C)ncc1Cl
2. C=CC(=O)Nc1cc(C)ccc1Nc1nc(Nc2cc(OC)nc(OC)c2)ncc1C(F)(F)F
3. C=CC(=O)Nc1cc(C)ccc1Nc1nc(Nc2cc(OC)nc(N3CCN(C(C)=O)CC3)c2)ncc1Cl
4. C=CC(=O)Nc1cc(C)ccc1Nc1nc(Nc2cc(OC)nc(N(C)CCOC)c2)ncc1C(F)(F)F
5. C=CC(=O)Nc1ccccc1Nc1nc(Nc2cc(C(N)=O)ccc2C)ncc1C(F)(F)F
6. C=CC(=O)Nc1ccccc1Nc1nc(N[C@H]2CCCN(C=O)C2)ncc1C(F)(F)F
7. C=CC(=O)Nc1cc(C)ccc1Nc1nc(Nc2nc(OC)ncc2C)ncc1C(F)(F)F

1. < 100 nM
2. < 100 nM
3. < 100 nM
4. < 100 nM
5. < 100 nM
6. 101 to 500 nM
7. 101 to 500 nM

====

System: A375 cells (malignant melanoma)
Test: Inhibition of cancer cell proliferation, A375 (CellTiterGlo, 72 hours)
Assay type: cell-based
Details: Homo sapiens, A-375
Please go through the items and note down their GI50.

For orientation, consider the following solved cases.
Line Notation	GI50
C=CC(=O)Nc1cc(C)ccc1Nc1nc(Nc2cc(C(=O)NCCO)c(F)cc2C)ncc1Cl	0.101 to 0.5 µM
C=CC(=O)Nc1ccccc1Nc1nc(Nc2cc(OC)ncc2C)ncc1Cl	< 0.1 µM
C=CC(=O)Nc1cc(C)ccc1Nc1nc(Nc2nc(OC)ccc2Cl)ncc1C(F)(F)F	0.101 to 0.5 µM

Here's the next entry for you.
Which GI50 reading was recorded for the compound "C=CC(=O)Nc1ccccc1Nc1nc(Nc2cc(C(N)=O)ccc2C)ncc1C(F)(F)F" ?
< 0.1 µM
